Every entry's value here was drawn from ChEMBL document CHEMBL3885861.

species on record: Rattus norvegicus; assay: Open TG-GATES - Regimen: Single; type: toxicity, organism-based, Sprague-Dawley; set-up: regimen Single, gender Male, age 6 weeks; settings: in vivo, po, 1000 mg/kg, 6 h, tissue Plasma, route gavage, dose level High
Threshold check on ALT: at or above 40 IU/L gives 1 (yes), strictly below gives 0 (no).

{"Compound": "O=C(OC[C@H]1O[C@@H](OC(=O)c2cc(O)c(O)c(OC(=O)c3cc(O)c(O)c(O)c3)c2)[C@H](OC(=O)c2cc(O)c(O)c(OC(=O)c3cc(O)c(O)c(O)c3)c2)[C@@H](OC(=O)c2cc(O)c(O)c(OC(=O)c3cc(O)c(O)c(O)c3)c2)[C@@H]1OC(=O)c1cc(O)c(O)c(OC(=O)c2cc(O)c(O)c(O)c2)c1)c1cc(O)c(O)c(OC(=O)c2cc(O)c(O)c(O)c2)c1 [TANNIC ACID]", "Category label": "1 (yes)"}
{"Compound": "CN/C(=N/CCSCc1nc[nH]c1C)NC#N [CIMETIDINE]", "Category label": "0 (no)"}
{"Compound": "COC(=O)C1=C(C)NC(C)=C(C(=O)OC)C1c1ccccc1[N+](=O)[O-] [NIFEDIPINE]", "Category label": "1 (yes)"}
{"Compound": "CNC(=C[N+](=O)[O-])NCCSCc1ccc(CN(C)C)o1 [RANITIDINE]", "Category label": "0 (no)"}

In the following, a different compound is considered.
Enquiry: ALT >= 40 IU/L for Cc1nnc2n1-c1ccc(Cl)cc1C(c1ccccc1Cl)=NC2 [TRIAZOLAM] ?
Return: 0 (no)

----------
species on record: Rattus norvegicus; assay: Open TG-GATES - Regimen: Single; format: toxicity, organism-based, Sprague-Dawley; design: regimen Single, gender Male, age 6 weeks; details: in vivo, po, 1000 mg/kg, 3 h, tissue Blood, route gavage, dose level High
Task for the reader: assign each of the following molecules its reported Lym.
Form field: result (number plus unit)

Sample answers from the record:
{"Structure string": "CN/C(=N/CCSCc1nc[nH]c1C)NC#N", "Endpoint value": "76.4%"}
{"Structure string": "Cc1nnc2n1-c1ccc(Cl)cc1C(c1ccccc1Cl)=NC2", "Endpoint value": "72%"}
{"Structure string": "COC(=O)C1=C(C)NC(C)=C(C(=O)OC)C1c1ccccc1[N+](=O)[O-]", "Endpoint value": "69.8%"}
{"Structure string": "O=C(OC[C@H]1O[C@@H](OC(=O)c2cc(O)c(O)c(OC(=O)c3cc(O)c(O)c(O)c3)c2)[C@H](OC(=O)c2cc(O)c(O)c(OC(=O)c3cc(O)c(O)c(O)c3)c2)[C@@H](OC(=O)c2cc(O)c(O)c(OC(=O)c3cc(O)c(O)c(O)c3)c2)[C@@H]1OC(=O)c1cc(O)c(O)c(OC(=O)c2cc(O)c(O)c(O)c2)c1)c1cc(O)c(O)c(OC(=O)c2cc(O)c(O)c(O)c2)c1", "Endpoint value": "81.6%"}

Attention now turns to another entry.
Enquiry: Query (molecule): CNC(=C[N+](=O)[O-])NCCSCc1ccc(CN(C)C)o1 ; field requested: Lym
Return: 76.2%

----------
organism: Rattus norvegicus; assay: Open TG-GATES - Regimen: Daily Repeat; assay type: toxicity, organism-based, Sprague-Dawley; set-up: regimen Daily Repeat, gender Male, age 6 weeks; conditions: in vivo, po, 300 mg/kg, […], tissue Kidney, route gavage, dose level Middle, time 7 day
Readout: KIDNEY_L (g)
One number for each entry, in g.

Sample answers from the record:
{"Structure string": "CN/C(=N/CCSCc1nc[nH]c1C)NC#N", "Readout": "KIDNEY_L", "Unit abbreviation": "g", "Endpoint value": 1.1}
{"Structure string": "O=C(OC[C@H]1O[C@@H](OC(=O)c2cc(O)c(O)c(OC(=O)c3cc(O)c(O)c(O)c3)c2)[C@H](OC(=O)c2cc(O)c(O)c(OC(=O)c3cc(O)c(O)c(O)c3)c2)[C@@H](OC(=O)c2cc(O)c(O)c(OC(=O)c3cc(O)c(O)c(O)c3)c2)[C@@H]1OC(=O)c1cc(O)c(O)c(OC(=O)c2cc(O)c(O)c(O)c2)c1)c1cc(O)c(O)c(OC(=O)c2cc(O)c(O)c(O)c2)c1", "Readout": "KIDNEY_L", "Unit abbreviation": "g", "Endpoint value": 1}
{"Structure string": "COC(=O)C1=C(C)NC(C)=C(C(=O)OC)C1c1ccccc1[N+](=O)[O-]", "Readout": "KIDNEY_L", "Unit abbreviation": "g", "Endpoint value": 1}
{"Structure string": "Cc1nnc2n1-c1ccc(Cl)cc1C(c1ccccc1Cl)=NC2", "Readout": "KIDNEY_L", "Unit abbreviation": "g", "Endpoint value": 1.1}
{"Structure string": "CCOc1ccc(NC(C)=O)cc1", "Readout": "KIDNEY_L", "Unit abbreviation": "g", "Endpoint value": 1.2}

Attention now turns to another entry.
Enquiry: Query (compound): CNC(=C[N+](=O)[O-])NCCSCc1ccc(CN(C)C)o1 ; field requested: KIDNEY_L
Return: 1.1

----------
organism: Rattus norvegicus; assay: Open TG-GATES - Regimen: Daily Repeat; format: toxicity, organism-based, Sprague-Dawley; design: regimen Daily Repeat, gender Male, age 6 weeks; conditions: in vivo, po, 300 mg/kg, 72 h, tissue Plasma, route gavage, dose level Middle, time 3 day
Task for the reader: assign each of the following molecules its reported TP.
Give bare numbers, in g/dL.

Sample answers from the record:
{"Molecule": "CN/C(=N/CCSCc1nc[nH]c1C)NC#N [CIMETIDINE]", "Readout": "TP", "Endpoint value": 5.7}
{"Molecule": "COC(=O)C1=C(C)NC(C)=C(C(=O)OC)C1c1ccccc1[N+](=O)[O-] [NIFEDIPINE]", "Readout": "TP", "Endpoint value": 5.6}

Attention now turns to another entry.
Enquiry: Query (molecule): O=C(OC[C@H]1O[C@@H](OC(=O)c2cc(O)c(O)c(OC(=O)c3cc(O)c(O)c(O)c3)c2)[C@H](OC(=O)c2cc(O)c(O)c(OC(=O)c3cc(O)c(O)c(O)c3)c2)[C@@H](OC(=O)c2cc(O)c(O)c(OC(=O)c3cc(O)c(O)c(O)c3)c2)[C@@H]1OC(=O)c1cc(O)c(O)c(OC(=O)c2cc(O)c(O)c(O)c2)c1)c1cc(O)c(O)c(OC(=O)c2cc(O)c(O)c(O)c2)c1 [TANNIC ACID] ; field requested: TP
Return: 5.6

----------
organism: Rattus norvegicus; test: Open TG-GATES - Regimen: Daily Repeat; type: toxicity, organism-based, Sprague-Dawley; set-up: regimen Daily Repeat, gender Male, age 6 weeks; details: in vivo, po, 0 mg/kg, […], tissue Blood, route gavage, dose level Control, time 14 day
Readout: RBC (x10_4/ul)
Give bare numbers, in x10_4/ul.

Sample answers from the record:
{"Compound": "O=C(OC[C@H]1O[C@@H](OC(=O)c2cc(O)c(O)c(OC(=O)c3cc(O)c(O)c(O)c3)c2)[C@H](OC(=O)c2cc(O)c(O)c(OC(=O)c3cc(O)c(O)c(O)c3)c2)[C@@H](OC(=O)c2cc(O)c(O)c(OC(=O)c3cc(O)c(O)c(O)c3)c2)[C@@H]1OC(=O)c1cc(O)c(O)c(OC(=O)c2cc(O)c(O)c(O)c2)c1)c1cc(O)c(O)c(OC(=O)c2cc(O)c(O)c(O)c2)c1", "Unit abbreviation": "x10_4/ul", "RBC": 669.8}
{"Compound": "CN/C(=N/CCSCc1nc[nH]c1C)NC#N", "Unit abbreviation": "x10_4/ul", "RBC": 717.8}
{"Compound": "CN(C)CCC(c1ccc(Cl)cc1)c1ccccn1 (configuration not stated)", "Unit abbreviation": "x10_4/ul", "RBC": 727.2}
{"Compound": "CC(C)NNC(=O)c1ccncc1", "Unit abbreviation": "x10_4/ul", "RBC": 679.4}
{"Compound": "Cc1nnc2n1-c1ccc(Cl)cc1C(c1ccccc1Cl)=NC2", "Unit abbreviation": "x10_4/ul", "RBC": 723.8}

Report RBC for each item below.
1. Brc1ccccc1
2. CN1C(=O)CCS(=O)(=O)C1c1ccc(Cl)cc1 (configuration not stated)

Return:
[665.6, 701]

----------
species: Rattus norvegicus; experiment: Open TG-GATES - Regimen: Single; type: toxicity, organism-based, Sprague-Dawley; design: regimen Single, gender Male, age 6 weeks; conditions: in vivo, po, 300 mg/kg, 6 h, tissue Blood, route gavage, dose level Middle
Task for the reader: assign each of the following compounds its reported APTT.
Answers are plain numbers, in s.

Sample answers from the record:
{"Compound": "O=C(OC[C@H]1O[C@@H](OC(=O)c2cc(O)c(O)c(OC(=O)c3cc(O)c(O)c(O)c3)c2)[C@H](OC(=O)c2cc(O)c(O)c(OC(=O)c3cc(O)c(O)c(O)c3)c2)[C@@H](OC(=O)c2cc(O)c(O)c(OC(=O)c3cc(O)c(O)c(O)c3)c2)[C@@H]1OC(=O)c1cc(O)c(O)c(OC(=O)c2cc(O)c(O)c(O)c2)c1)c1cc(O)c(O)c(OC(=O)c2cc(O)c(O)c(O)c2)c1 [TANNIC ACID]", "APTT (s)": 16.5}
{"Compound": "CN/C(=N/CCSCc1nc[nH]c1C)NC#N [CIMETIDINE]", "APTT (s)": 19.5}

Report APTT for each item below.
1. CNC(=C[N+](=O)[O-])NCCSCc1ccc(CN(C)C)o1 [RANITIDINE]
2. COC(=O)C1=C(C)NC(C)=C(C(=O)OC)C1c1ccccc1[N+](=O)[O-] [NIFEDIPINE]
3. Cc1nnc2n1-c1ccc(Cl)cc1C(c1ccccc1Cl)=NC2 [TRIAZOLAM]

Return:
1. 18.8
2. 16.3
3. 17.4
